Numbers sourced from the supplement of paper PMC10567573.

Assign protein stability index to each entry below.
test: protein stability index of a GFP-peptide fusion (GPS, HEK-293T) (PSI 1-6); higher = more stable; conditions: treatment: DMSO; c terminus: a fixed tail appended;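 also: 24-mer peptide tiles fused after GFP, lentivirally expressed, FACS-sorted into six equal bins by GFP/DsRed ratio, decoded by Illumina sequencing, PSI is the read-weighted mean bin number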
Respond using a number only.

Query string: Name the recorded protein stability index for DSKPESALGAPSKSPSSPQAAFTQ [TBX5] .
Result string: 5.18

Query string: Repeat with GGQEEASQEAGLPAGAGPSPTFPA [SEPHS2]
Result string: 5.56

Query string: Could you do the same for DRVLNYTSWSQHCPWEPQKQPPWE [SPAG8] , please?
Result string: 2.87

Query string: Request: SFFFPPVNLPISFFRKLLDCCQVS [NLN]
Result string: 2.23

Query string: Also VQGGSEAWGPGTLAAAPEGLEDAG [TEX19] , if possible.
Result string: 5.12

Query string: Input RAIPELTKLLNDEDQVVVNKAAVM [CTNNB1]
Result string: 3.91

Query string: Similarly, WALGCVLYELASLKRAFEAANLPA [NEK8] ?
Result string: 2.99

Query string: Next up: GGLGTPLRLPMLNTEVVQVAAGRT [NEK8]
Result string: 4.11

Query string: Also, KDGKLLAATLLLALLSCCLTVVSF [TNFSF13B] please.
Result string: 3.26

Query string: Next: GIGGGIGGGSSRISSVLAGGSCRA [KRT16]
Result string: 3.87

Query string: Record: DSTNVEAAFQTILTEIYRIVSQKQ [RAB11A]
Result string: 2.26

Query string: And for CCRACSVSFSTGAGGWSNHHFCVI [BET1L] ?
Result string: 2.42

Query string: Then ALKRQLPFRGDEGIFEESFIEERR [SNX12] ?
Result string: 3.8

Query string: Cool, now EAKALLKERQKKDNHNLIERRRRF [TFE3]
Result string: 4.21

Query string: Thanks! And SRLTALTLHQRTHTEERPFKCNYC [ZNF449] ?
Result string: 2.73

Query string: Cool, now DQEIKFFRCLFEAEITQIQSHISD [KRT71]
Result string: 2.25

Query string: Please do the same for KPARKRRRRSRKKPSGALGSESYK [EHMT1] as well.
Result string: 5.11

Query string: Also need PVRDECEERNRFTETREEDVTDEH [FAM9B] , thanks.
Result string: 5.44

Query string: Okay, and LLPPGEPPLLGTFPRDHTSLALVQ [ANKRD40] ?
Result string: 3.48

Query string: One more sequence: ESPRKRKKATEAIDSLRKSKRLRN [FBXO28]
Result string: 5.3

Query string: Cool, now PFDQSGLGAEESLGLLDDYLEVAK [ATF4]
Result string: 4.28

Query string: Also need GPVRSSSGMGGRAPVSRGRDSYGG [RBMX] , thanks.
Result string: 4.32

Query string: What do you get for SLGLDHCHSFISGTAPLNQETAEF [ACSBG2] ?
Result string: 4.18

Query string: Record: LRGQVGGEINVEMDAAPGVDLSRI [KRT17]
Result string: 3.97

Query string: Next record, please: CLAQGWKQYQQRAFGWFRCSSCQR [RTP4]
Result string: 2.15

Query string: Same lookup for VGKVEELIESEAPPKASEQETAKE [C18orf25] , please.
Result string: 5.53

Query string: Please do the same for QKGIPPSLRGRAWQYLSGGKVKLQ [TBC1D10A] as well.
Result string: 2.8
